# System: HEK-293T
# EXPERIMENT NOTES: Multiplex assay against HEK293T
# Format: toxicity, cell-based
# TEST CONDITIONS: human, 24 h, 10 µM, compound concentration 10 uM, replicate 1
Classification field. Basis: Population Pyknosed Nuclei (%). Definitions: lower level = under 40%, middle level = from 40% up to 60%, upper level = 60% and over

Reference set, count: 6
>  <COMPOUND>
CN1CCCC(n2nc(Cc3ccc(Cl)cc3)c3ccccc3c2=O)CC1.Cl (configuration not stated) [AZELASTINE HYDROCHLORIDE]

>  <STUDY SYSTEM>
HEK-293T

>  <LABEL CLASS>
upper level

$$$$
>  <COMPOUND>
C=CC(=O)Nc1cc2c(Nc3ccc(F)c(Cl)c3)ncnc2cc1OCCCN1CCOCC1.Cl.Cl [CANERTINIB DIHYDROCHLORIDE]

>  <STUDY SYSTEM>
HEK-293T

>  <LABEL CLASS>
lower level

$$$$
>  <COMPOUND>
c1cn2cc(-c3ccc4cn[nH]c4c3)nc(Nc3ccc(N4CCOCC4)cc3)c2n1 [ENTOSPLETINIB]

>  <STUDY SYSTEM>
HEK-293T

>  <LABEL CLASS>
lower level

$$$$
>  <COMPOUND>
CN1CCN(c2ccc(OC(F)(F)F)c(Nc3ncc4c(n3)-c3c(c(C(N)=O)nn3CCO)CC4)c2)CC1 [ONVANSERTIB]

>  <STUDY SYSTEM>
HEK-293T

>  <LABEL CLASS>
middle level

$$$$
>  <COMPOUND>
CN(C)C(=O)/C(C#N)=C/c1ccc(-c2nc3cnc4[nH]ccc4c3n2C2CCCCC2)o1

>  <STUDY SYSTEM>
HEK-293T

>  <LABEL CLASS>
lower level

$$$$
>  <COMPOUND>
COc1ncc(-c2ccc3nccc(-c4ccnnc4)c3c2)cc1NS(=O)(=O)c1ccc(F)cc1F [OMIPALISIB]

>  <STUDY SYSTEM>
HEK-293T

>  <LABEL CLASS>
upper level

$$$$

Note: place this compound into its band. Item: `C=CC(=O)Nc1ccc2ncnc(Nc3ccc(OCc4cccc(F)c4)c(Cl)c3)c2c1.Cc1ccc(S(=O)(=O)O)cc1`
middle level

Note: place this compound into its band. Item: COc1cccc([C@@H](C)NCCCc2ccccc2Cl)c1.Cl [TECALCET HYDROCHLORIDE]
middle level

====

# Test system: U2OS
# EXPERIMENT NOTES: Multiplex assay against U2OS
# Format: toxicity, cell-based
# TEST CONDITIONS: human, 24 h, 10 µM, compound concentration 10 uM, replicate 2
READOUT: Population Mitochondria Different-Phenotype (%)
Number plus unit, in that order.

>  <COMPOUND>
CCN(CC)CCCCNc1ncc2cc(-c3cc(OC)cc(OC)c3)c(NC(=O)NC(C)(C)C)nc2n1

>  <EXPERIMENTAL VALUE>
52%

$$$$
>  <COMPOUND>
CN1CCN(CCOc2cc(OC3CCOCC3)c3c(Nc4c(Cl)ccc5c4OCO5)ncnc3c2)CC1

>  <EXPERIMENTAL VALUE>
96%

$$$$
>  <COMPOUND>
CN1CCN(c2ccc(OC(F)(F)F)c(Nc3ncc4c(n3)-c3c(c(C(N)=O)nn3CCO)CC4)c2)CC1

>  <EXPERIMENTAL VALUE>
82%

$$$$
>  <COMPOUND>
OC1(c2ccc(Cl)cc2)CCN(Cc2c[nH]c3ccccc23)CC1

>  <EXPERIMENTAL VALUE>
94%

$$$$
>  <COMPOUND>
Cc1nc(-c2ccc(-c3ccc(C(=O)N4CCc5cc6c(cc54)C4(CCN(C)CC4)CO6)cc3)c(C)c2)no1

>  <EXPERIMENTAL VALUE>
100%

$$$$

Fill blank: measured Population Mitochondria Different-Phenotype (%) of the compound CN1CCC[C@@H]1CCO[C@](C)(c1ccccc1)c1ccc(Cl)cc1.O=C(O)/C=C/C(=O)O [CLEMASTINE FUMARATE] is ____.
86%

Fill blank: measured Population Mitochondria Different-Phenotype (%) of the compound `CN(C)CC#Cc1ccc(OCCCc2sc(N3CCc4cccc(C(=O)Nc5nc6ccccc6s5)c4C3)nc2C(=O)O)c(F)c1` is ____.
14%
